tested on: S. aureus; test: MIC (Table 5, strain not given); type: cell-based; conditions: Staphylococcus aureus; S. aureus (Table 5)
observable: MIC (µg/mL)

Worked cases, answers included:
>>> df
                                   molecule  readout_value
0  C[C@@H]1C[C@H](C)CN(S(=O)(=O)c2ccc(C(=O)Nc3nnc(-c4ccnn4C)o3)cc2)C1 [HSGN-124]              8
1  Cc1nc(C)c(-c2nnc(NC(=O)c3ccc(S(=O)(=O)N4C[C@H](C)C[C@H](C)C4)cc3)o2)s1 [HSGN-123]             16
2  CN(c1ccccc1)S(=O)(=O)c1ccc(C(=O)Nc2nnc(-c3ccc(C(F)(F)F)cc3)o2)cc1 [HSGN-161]           0.25
3  C[C@@H]1C[C@H](C)CN(S(=O)(=O)c2cccc(C(=O)Nc3nnc(-c4ccc(C(F)(F)F)cc4)o3)c2)C1 [HSGN-176]              8

(1) CCCCOc1ccc(-c2nnc(NC(=O)c3ccc(S(=O)(=O)N4C[C@H](C)C[C@H](C)C4)cc3)o2)cc1 [HSGN-191]
(2) C[C@@H]1C[C@H](C)CN(S(=O)(=O)c2ccc(C(=O)Nc3nnc(-c4cccc(F)c4)o3)cc2)C1 [HSGN-111]
Challenge: Select one: 1 or 2 . Criterion: greater recorded MIC. Bench note: the answer is the label of the chosen record.
Response given: 1

(A) C[C@@H]1C[C@H](C)CN(S(=O)(=O)c2ccc(C(=O)Nc3nnc(-c4cccc(Cl)c4)o3)cc2)C1 [HSGN-110]
(B) Cc1ccc(C(=O)Nc2nnc(-c3ccc(C(F)(F)F)cc3)o2)cc1S(=O)(=O)N1C[C@H](C)C[C@H](C)C1 [HSGN-177]
Challenge: Select one: A or B . Criterion: greater recorded MIC. Bench note: the answer is the label of the chosen record.
Response given: B
(B: 2 µg/mL, A: 1 µg/mL)

----------
system: S. aureus; assay: MIC (Table 5, strain not given); assay type: cell-based; conditions: Staphylococcus aureus; S. aureus (Table 5)
observable: MIC (µg/mL)

>>> print(df.to_string())
                            chemical_string  readout_value
0  Cc1ccc(-c2nnc(NC(=O)c3ccc(S(=O)(=O)N4C[C@H](C)C[C@H](C)C4)cc3)o2)cc1             16
1  Cc1cc(C(=O)Nc2nnc(-c3ccc(C(F)(F)F)cc3)o2)ccc1S(=O)(=O)N1C[C@H](C)C[C@H](C)C1           0.25
2  COc1cccc(-c2nnc(NC(=O)c3ccc(S(=O)(=O)N4C[C@H](C)C[C@H](C)C4)cc3)o2)c1              4
3  C[C@@H]1C[C@H](C)CN(S(=O)(=O)c2ccc(C(=O)Nc3nnc(-c4ccc(C(F)(F)F)cc4)o3)cc2)C1           0.25

(A) C[C@@H]1C[C@H](C)CN(S(=O)(=O)c2ccc(C(=O)Nc3nnc(-c4ccc(F)cc4F)o3)cc2)C1
(B) O=C(Nc1nnc(-c2cccs2)o1)c1ccc(S(=O)(=O)Cc2ccccc2)cc1
Challenge: Min MIC? A | B Bench note: the answer is the label of the chosen record.
Response given: A
(A: 8 µg/mL, B: 64 µg/mL)

This collection of values is drawn from patent US11731964B2.
